# experimentalSystem: T1, HLA-A*24:02 (human)
# T1 construct: Peptide-receptive MHC class I monomer in the UV-ligand exchange assay
# experimentalProtocol: allele assigned to HLA ligand eluted from tissue (IP, LC-MS)
measuredMetric: binding result

{"binder": "LWEEKPVCL", "result": "binds"}
{"binder": "SHSSPTVSF", "result": "binds"}
{"binder": "VLYPSHSSF", "result": "binds"}
{"binder": "QYLTYYPSF", "result": "binds"}
{"binder": "SYLKDHLSL", "result": "binds"}
{"binder": "FYNPRPPLI", "result": "binds"}
{"binder": "LYDTVTHTF", "result": "binds"}
{"binder": "VWILQKVNLAF", "result": "binds"}
